System: Micrococcus yunnanensis (MY)
assay-info: Effectiveness of peptides on spiked fuel samples (aqueous layer)
Type: cell-based
Parameters: key: (+) =1 (implying peptide activity in fuel environment); (X) = 0 (implying no activity in the desired range, indicated by microbial proliferation); Fuel x = -1(implying no activity in fuel environment)
test-conditions: initial screening in spiked fuel
value-type: activity considering MIC value/efficacy upon fuel co-incubation

CC(C)C[C@H](NC(=O)[C@@H](N)Cc1ccc(O)cc1)C(=O)N1CCC[C@H]1C(=O)N[C@@H](Cc1c[nH]c2ccccc12)C(=O)N[C@@H](CCCCN)C(=O)N[C@@H](Cc1c[nH]c2ccccc12)C(=O)N1CCC[C@H]1C(=O)N[C@@H](Cc1c[nH]c2ccccc12)C(=O)N[C@@H](Cc1c[nH]c2ccccc12)C(=O)N1CCC[C@H]1C(=O)N[C@@H](Cc1c[nH]c2ccccc12)C(=O)N[C@@H](CCCNC(=N)N)C(=O)N[C@@H](CCCNC(=N)N)C(=O)O [P14]    X
CC[C@H](C)[C@H](N)C(=O)N[C@@H](CC(C)C)C(=O)N[C@H](C(=O)N[C@@H](Cc1c[nH]c2ccccc12)C(=O)N[C@@H](CCCCN)C(=O)N[C@@H](Cc1c[nH]c2ccccc12)C(=O)N1CCC[C@H]1C(=O)N[C@@H](Cc1c[nH]c2ccccc12)C(=O)N[C@@H](Cc1c[nH]c2ccccc12)C(=O)N1CCC[C@H]1C(=O)N[C@@H](Cc1c[nH]c2ccccc12)C(=O)N[C@@H](CCCNC(=N)N)C(=O)N[C@@H](CCCNC(=N)N)C(=O)O)[C@@H](C)CC [P18]    +
CC[C@H](C)[C@H](N)C(=O)N[C@@H](CC(C)C)C(=O)N[C@@H](Cc1c[nH]c2ccccc12)C(=O)N[C@@H](Cc1c[nH]c2ccccc12)C(=O)N[C@@H](CCCCN)C(=O)N[C@@H](Cc1c[nH]c2ccccc12)C(=O)N1CCC[C@H]1C(=O)N[C@@H](Cc1c[nH]c2ccccc12)C(=O)N[C@@H](Cc1c[nH]c2ccccc12)C(=O)N1CCC[C@H]1C(=O)N[C@@H](Cc1c[nH]c2ccccc12)C(=O)N[C@@H](CCCNC(=N)N)C(=O)N[C@@H](CCCNC(=N)N)C(=O)O [P15]    X
CC[C@H](C)[C@H](N)C(=O)N[C@@H](CC(C)C)C(=O)N[C@@H](Cc1ccccc1)C(=O)N[C@@H](Cc1c[nH]c2ccccc12)C(=O)N[C@@H](CCCCN)C(=O)N[C@@H](Cc1c[nH]c2ccccc12)C(=O)N1CCC[C@H]1C(=O)N[C@@H](Cc1c[nH]c2ccccc12)C(=O)N[C@@H](Cc1c[nH]c2ccccc12)C(=O)N1CCC[C@H]1C(=O)N[C@@H](Cc1c[nH]c2ccccc12)C(=O)N[C@@H](CCCNC(=N)N)C(=O)N[C@@H](CCCNC(=N)N)C(=O)O [P16]    +
